Molecular target: Neu5Ac(a2-6)Gal(b1-4)GlcNAc
Assay: glycan array binding signal (z-score within array); higher = stronger binding
Conditions: glycan notation: IUPAC condensed, linker removed
About 410 targets per protein were measured; listed, in parts, are those with the strongest signals and a random draw of the rest.
Known glycan array binding signal (z-score) of a selection of binders
API doc: respond with a numeric literal and nothing else, no unit.

// known answers, use as guide
{"Binder": "SJA (Sophora japonica) (protein) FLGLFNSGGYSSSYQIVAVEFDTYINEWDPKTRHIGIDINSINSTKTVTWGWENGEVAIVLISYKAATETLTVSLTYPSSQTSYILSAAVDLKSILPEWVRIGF", "Val": -0.22}
{"Binder": "ArathEULS3 (Arabidopsis thaliana), Q945P1 (protein) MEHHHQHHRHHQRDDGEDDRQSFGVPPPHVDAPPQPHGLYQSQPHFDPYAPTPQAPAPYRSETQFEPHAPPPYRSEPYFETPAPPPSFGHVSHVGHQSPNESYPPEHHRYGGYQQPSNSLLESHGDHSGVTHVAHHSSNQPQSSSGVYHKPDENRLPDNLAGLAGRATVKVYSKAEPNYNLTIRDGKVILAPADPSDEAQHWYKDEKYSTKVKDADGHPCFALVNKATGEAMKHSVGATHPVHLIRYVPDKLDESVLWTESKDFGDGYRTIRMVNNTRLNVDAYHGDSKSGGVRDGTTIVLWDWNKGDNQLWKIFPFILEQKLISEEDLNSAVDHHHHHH", "Val": 0.011}
{"Binder": "DBA (Dolichos biflorus) (protein) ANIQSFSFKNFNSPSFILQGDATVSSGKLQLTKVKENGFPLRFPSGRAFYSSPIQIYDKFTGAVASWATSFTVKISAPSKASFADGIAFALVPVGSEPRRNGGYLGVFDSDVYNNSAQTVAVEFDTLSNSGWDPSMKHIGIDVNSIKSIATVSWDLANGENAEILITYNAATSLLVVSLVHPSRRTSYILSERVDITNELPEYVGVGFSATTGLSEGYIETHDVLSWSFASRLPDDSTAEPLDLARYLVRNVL", "Val": -0.103}

Now examine the next entry.
Quick one: glycan array binding signal (z-score) for PpFlo3 (Pichia pastoris) (protein) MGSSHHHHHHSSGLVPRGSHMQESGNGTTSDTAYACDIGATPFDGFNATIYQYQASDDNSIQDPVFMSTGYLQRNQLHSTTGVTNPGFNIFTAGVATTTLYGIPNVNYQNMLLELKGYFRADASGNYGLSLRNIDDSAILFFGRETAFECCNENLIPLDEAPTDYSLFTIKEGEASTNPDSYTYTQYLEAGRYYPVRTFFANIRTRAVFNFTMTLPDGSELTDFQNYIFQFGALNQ ? -0.282

Origin of values: the supplement of paper PMC8728848
